What normalized DsRed fluorescence was measured for each of the following?
Test system: Staphylococcus aureus MW2 (mecA+)
Assay protocol: normalized DsRed fluorescence (growth of mecA+ strain) (fraction of control range); higher = more growth of mecA+ strain
Measurement conditions: compound concentration: 150 uM; cefoxitin: subinhibitory; fluorescent label: DsRed
Where a name gives a salt, the structure may show the parent alone.

Compound	normalized DsRed fluorescence
NCc1ccc(S(N)(=O)=O)cc1	0.71
OC(CCN1CCCCC1)(c1ccccc1)C1CC2C=CC1C2 (stereo not drawn) [Biperiden hydrochloride]	0.714
O=C(CCBr)N1CCN(C(=O)CCBr)CC1	0.794

For every item below, please supply its normalized DsRed fluorescence.
1. CC(C)(C)C(=O)OCOP(=O)(COCCn1cnc2c(N)ncnc21)OCOC(=O)C(C)(C)C
2. C#CCN[C@@H]1CCc2ccccc21

Reply:
0.712
0.693
